We begin with IC50 values for Serine/threonine-protein kinase PLK1 (Homo sapiens), as collected from the published literature.
PROPERTY LABEL: IC50 (µM)

Solved cases below.
1) Cc1nn(-c2cccc(N(C)C)c2)c2cc(N[C@@H](C)c3ccccc3)ncc12 | 0.977
2) COc1c(Br)cc(C[C@H](C(=O)[O-])[N+](C)(C)C)cc1I | 17.1
3) CCCCCCCCOc1ccc(C(=O)Nc2cc(C)ccc2C(=O)O)cc1 | 29.8
4) Cc1ccccc1COc1cc(-n2cnc3cc(Cl)ccc32)sc1C(N)=O | 0.021
5) O=C1Cc2cnc(Nc3ccc(O)c(Cl)c3)nc2-c2ccccc2N1 | 9.3
6) Cc1[nH]nc2sc(C(N)=O)c(NC(=O)c3ccccc3Cl)c12 | 23

1. CN1CCC(c2ccc(OC(F)(F)F)c(Nc3ncc4c(n3)-c3c(c(C(N)=O)nn3C)CC4)c2)CC1
2. CC1=C/C(=N\OC(=O)c2ccc(CNC(=O)CCc3cn(CCCCCCOCCOCCNC(=O)CC4C5CC6CC(C5)CC4C6)nn3)cc2C)C(C)=CC1=O (stereo not given)
3. Cc1nc(-c2ccccc2)n2nc(Nc3ccc(S(N)(=O)=O)cc3)ncc12
4. CNC(=O)c1ccc(-c2noc(C)n2)cc1
Q) Sort low-to-high on IC50, please. # format: label list in the order the request specifies
A) 1, 3, 2, 4
(1: 0.006 µM, 3: 2.74 µM, 2: 10.5 µM, 4: 320 µM)

a. CCCCCCCCCCc1ccc(C(=O)Nc2ccc(C)cc2C(=O)O)cc1
b. CCc1ccc(C(=O)NC)cc1
c. CCN1CCC(NC(=O)c2ccc(Nc3ncc4c(F)cn(-c5cccc(C(C)(C)O)n5)c4n3)cc2)CC1
d. Cc1ccccc1-n1nc(C)c2cnc(N[C@@H](C)c3ccccc3)cc21
Q) Sort low-to-high on IC50, please. # format: label list in the order the request specifies
A) c, d, b, a

---

pIC50: −log10 of the molar value.
We begin with pIC50 values for Serine/threonine-protein kinase PLK1 (Homo sapiens, UniProt P53350), as collected from the published literature.
PROPERTY LABEL: pIC50

Solved cases below.
1. O=C1Nc2ccccc2/C1=C\c1ccc2cn[nH]c2c1 | 4.62
2. Cc1ccccc1COc1cc(-n2cnc3ccc(Cl)cc32)sc1C(N)=O | 8.40
3. CN1CCN(c2ccc(OC(F)(F)F)c(Nc3nccc(-c4cc(C(N)=O)cn4CCOC4CCCCO4)n3)c2)CC1 (stereo not given) | 6.57
4. CNC(=O)c1ccc(OC)c2ccccc12 | 4.00
5. COc1cc2ncn(-c3cc(OCc4sccc4Cl)c(C(N)=O)s3)c2cc1OC | 8.70

A. O=C1Nc2ccc(F)cc2/C1=C\c1ccc2cn[nH]c2c1
B. Nc1ccccc1NC(=O)c1ccc(-c2ccc3ncnc(Nc4ccc(OCc5cccc(F)c5)c(Cl)c4)c3c2)o1
C. COc1ccc(Cn2ncc(NC(=O)c3cc(NC(=O)Nc4ccc(Cl)c(C(F)(F)F)c4)ccc3C)c2N)cc1
Q) Order the 3 compounds from highest to lowest pIC50. # format: label list in the order the request specifies
A) C, B, A

---

We begin with IC50 values for Serine/threonine-protein kinase PLK1 (Homo sapiens, UniProt P53350), as collected from the published literature.
PROPERTY LABEL: IC50 (µM)

Solved cases below.
1) Nc1ccccc1NC(=O)CCc1ccc(-c2ccc3ncnc(Nc4ccc(OCc5cccc(F)c5)c(Cl)c4)c3c2)cc1 | 27
2) COc1ccc2c(c1)/C(=C\c1ccc3cn[nH]c3c1)C(=O)N2 | 10
3) CS(=O)(=O)c1ccc2ncn(-c3cc(OCc4ccccc4C(F)(F)F)c(C(N)=O)s3)c2c1 | 0.012

1. NC(=O)c1sc(-n2cnc3ccccc32)cc1OCc1ccccc1Cl
2. CCCc1ccc(C(=O)NC)cc1
Q) Larger number for IC50: 1 , or 2 ? // return label of chosen record
A) 2
(2: 10.8 µM, 1: 0.012 µM)
